B1: glmS ribozyme (parent)
chain: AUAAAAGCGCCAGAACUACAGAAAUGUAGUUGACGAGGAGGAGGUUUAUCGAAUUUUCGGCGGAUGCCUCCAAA

variants of: B1; assay: self-cleavage kobs at 40 uM GlcN6P; higher = faster cleavage; RNA array; conditions: with glucosamine-6-phosphate
This sample holds only a part of the variants without activity.
ENDPOINT_NAME: self-cleavage kobs at 40 uM GlcN6P

A14U U31C yielded self-cleavage kobs at 40 uM GlcN6P of 0.00012 s⁻¹

// self-cleavage kobs at 40 uM GlcN6P value for C16G C67A : 3.35e-05 s⁻¹

The variant listed as C10A C16G U31G G38A C61U shows self-cleavage kobs at 40 uM GlcN6P equal to < 1e-05 s⁻¹

self-cleavage kobs at 40 uM GlcN6P reported for this variant G35C G51A C68U : < 1e-05 s⁻¹

In plain terms, A12G C50U G59U G60A has a documented self-cleavage kobs at 40 uM GlcN6P of < 1e-05 s⁻¹

// self-cleavage kobs at 40 uM GlcN6P lookup, variant = U56A G59C , result: < 1e-05 s⁻¹

// self-cleavage kobs at 40 uM GlcN6P lookup, variant = C34U C50G , result: 5.12e-05 s⁻¹

// self-cleavage kobs at 40 uM GlcN6P value for U2G A33G : < 1e-05 s⁻¹

self-cleavage kobs at 40 uM GlcN6P reading for G43U A48G U65A G66U C70A : < 1e-05 s⁻¹

self-cleavage kobs at 40 uM GlcN6P measured on A14G G40C = 0.000285 s⁻¹

For A14G U54A the variant record lists self-cleavage kobs at 40 uM GlcN6P as 0.00167 s⁻¹

Notebook: A42C U55A U57C , self-cleavage kobs at 40 uM GlcN6P read as < 1e-05 s⁻¹

// self-cleavage kobs at 40 uM GlcN6P value for U57A G60U : < 1e-05 s⁻¹

variant C16A G37U G43U U57C , self-cleavage kobs at 40 uM GlcN6P observed: < 1e-05 s⁻¹

Measured self-cleavage kobs at 40 uM GlcN6P, A15G G43C : < 1e-05 s⁻¹

Reported self-cleavage kobs at 40 uM GlcN6P ( G63C ) = < 1e-05 s⁻¹

Query A33C U55C yields self-cleavage kobs at 40 uM GlcN6P of < 1e-05 s⁻¹

Entry G29C G43U C67U , self-cleavage kobs at 40 uM GlcN6P reported as < 1e-05 s⁻¹

The measured self-cleavage kobs at 40 uM GlcN6P associated with G40A U47A reads 0.000132 s⁻¹

The recorded self-cleavage kobs at 40 uM GlcN6P for entry A12U A42G equals 0.00296 s⁻¹

For reference, reported self-cleavage kobs at 40 uM GlcN6P for G41A C58G stands at < 1e-05 s⁻¹

Entry G51C A52G — recorded self-cleavage kobs at 40 uM GlcN6P = < 1e-05 s⁻¹
